- Tested System: human P2X3 receptor (Homo sapiens)
- Construct: expressed in transfected cells; host or cells: Xenopus oocytes (cRNA injected); cDNA from the Max-Planck Institute laboratory (Dr. W. Stuhmer and Dr. F. Soto)
- Sequence (P56373 1-397): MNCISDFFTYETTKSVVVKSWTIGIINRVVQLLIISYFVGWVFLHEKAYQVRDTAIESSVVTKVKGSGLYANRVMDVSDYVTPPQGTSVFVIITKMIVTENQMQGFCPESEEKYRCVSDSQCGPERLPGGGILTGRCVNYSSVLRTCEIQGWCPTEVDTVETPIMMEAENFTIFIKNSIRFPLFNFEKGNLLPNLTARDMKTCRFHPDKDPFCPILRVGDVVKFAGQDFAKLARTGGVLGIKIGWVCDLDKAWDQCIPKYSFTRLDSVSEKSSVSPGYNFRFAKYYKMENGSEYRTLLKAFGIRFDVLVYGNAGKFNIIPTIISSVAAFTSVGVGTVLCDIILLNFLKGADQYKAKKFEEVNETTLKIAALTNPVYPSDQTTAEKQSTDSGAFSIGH
- Method Notes: Two-electrode voltage clamp, ATP-induced ion current in Xenopus oocytes expressing human P2X3
- Format: cell-based
- Measurement Conditions: Table 2; 10 μM compound; ion current induced by 2 μM ATP; mean ± SEM, n = 4; read-out: % inhibition hP2X3
- Description: Antagonistic Activity at Recombinant Mouse P2X1 and Human P2X3 Receptors Xenopus oocytes were harvested and prepared with method as previously described in publications. […] ATP-activated membrane currents (Vh=−70 mV) were recorded from cRNA-injected oocytes using the twin-electrode voltage-clamp technique (Axoclamp 2B amplifier). […]
Recorded Metric: inhibition at 10 µM (%)

A: COc1cccc(CCc2nc(C)c(O)c(C(=O)O)c2C(=O)O)c1
B: CC(=O)c1c(O)c(C)nc(/C=C/c2ccccc2)c1C(=O)O
C: Cc1nc(CCc2ccc(C(=O)O)cc2)c(C(=O)O)c(C(=O)O)c1O
D: COc1cccc(/C=C/c2nc(C)c(O)c(C(C)=O)c2C(=O)O)c1
E: COc1ccccc1/C=C/c1nc(C)c(O)c(C(C)=O)c1C(=O)O
Problem: Ranking request: inhibition at 10 µM, max to min, items above. Note for the reader: the ranking is given by listing the labels in the order requested.
Solution: C, A, B, D, E
(C: 68.9%, A: 39.3%, B: 27.4%, D: 15.8%, E: 6.3%)

A: COc1ccc(CCc2nc(C)c(O)c(C(C)=O)c2C(=O)O)cc1
B: COc1ccc(CCc2nc(C)c(O)c(C=O)c2C(=O)O)cc1
Problem: Hi, I'm comparing two records. Which one has the lower inhibition at 10 µM, A or B ? # respond with the chosen item's label
Solution: A

A: Cc1nc(CCc2ccccc2)c(C(=O)O)c(C(=O)O)c1O
B: COc1ccccc1CCc1nc(C)c(O)c(C(=O)O)c1C(=O)O
Problem: Between A and B , whose recorded inhibition at 10 µM is greater? # respond with the chosen item's label
Solution: A
(A: 51%, B: 34.5%)

P: CC(=O)c1c(O)c(C)nc(CCc2ccccc2)c1C(=O)O
Q: COc1ccc(CCc2nc(C)c(O)c(C=O)c2/C=C/C(=O)O)cc1
Problem: Hi, I'm comparing two records. Which one has the lower inhibition at 10 µM, P or Q ? # respond with the chosen item's label
Solution: P

###

- Tested System: human P2X7 receptor (Homo sapiens, UniProt Q99572)
- Construct: EST clones containing full-length cDNAs of mouse P2X1 (clone ID: 4189541) and human P2X7 receptor (clone ID: 5286944); host or cells: HEK293
- Sequence (Q99572 whole entry): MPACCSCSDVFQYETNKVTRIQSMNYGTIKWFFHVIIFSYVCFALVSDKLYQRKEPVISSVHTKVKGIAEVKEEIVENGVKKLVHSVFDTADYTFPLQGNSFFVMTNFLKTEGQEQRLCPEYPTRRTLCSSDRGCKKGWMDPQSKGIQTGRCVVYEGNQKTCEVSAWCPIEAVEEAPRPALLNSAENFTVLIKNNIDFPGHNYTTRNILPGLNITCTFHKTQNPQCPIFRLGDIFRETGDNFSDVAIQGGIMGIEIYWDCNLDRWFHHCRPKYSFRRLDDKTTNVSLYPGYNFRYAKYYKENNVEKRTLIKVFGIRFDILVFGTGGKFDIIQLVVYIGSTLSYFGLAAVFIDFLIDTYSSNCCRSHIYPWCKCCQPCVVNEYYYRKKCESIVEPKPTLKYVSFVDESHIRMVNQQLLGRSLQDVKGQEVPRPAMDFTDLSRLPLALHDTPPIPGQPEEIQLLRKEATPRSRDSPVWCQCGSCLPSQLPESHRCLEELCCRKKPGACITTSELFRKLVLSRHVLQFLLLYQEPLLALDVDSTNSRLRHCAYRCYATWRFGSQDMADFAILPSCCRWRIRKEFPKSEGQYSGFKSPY
- Method Notes: Ethidium+ accumulation assay in human P2X7-expressing HEK293 cells
- Format: cell-based
- Measurement Conditions: 10 μM compound, ethidium+ accumulation induced by 6 μM BzATP, n = 3
Recorded Metric: % inhibition hP2X7

{"columns": ["Smiles Repr", "Measured"],
 "data": [
  ["COc1ccccc1/C=C/c1nc(C)c(O)c(C(C)=O)c1C(=O)O", "inactive"],
  ["COc1ccc(CCc2nc(C)c(O)c(C(=O)O)c2C(=O)O)cc1", "inactive"],
  ["CC(=O)c1c(O)c(C)nc(/C=C/c2ccccc2)c1C(=O)O", "inactive"],
  ["Cc1nc(Cc2ccccc2)c(C(=O)O)c(C(=O)O)c1O", "inactive"],
  ["Cc1nc(CCc2ccccc2)c(C(=O)O)c(C(=O)O)c1O", "inactive"]
]}

Problem: Please look up its % inhibition hP2X7: `COc1ccc(CCc2nc(C)c(O)c(C=O)c2/C=C/C(=O)O)cc1`
Solution: inactive

Problem: Please look up its % inhibition hP2X7: `COc1ccc(CCc2nc(C)c(O)c(C=O)c2C(=O)O)cc1`
Solution: inactive

Problem: Please look up its % inhibition hP2X7: `COc1ccc(CCc2nc(C)c(O)c(C(C)=O)c2C(=O)O)cc1`
Solution: inactive

Problem: Please look up its % inhibition hP2X7: `Cc1nc(Cc2cccc3ccccc23)c(C(=O)O)c(C(=O)O)c1O`
Solution: inactive

###

- Tested System: human P2X3 receptor (Homo sapiens)
- Construct: expressed in transfected cells; host or cells: Xenopus oocytes (cRNA injected); cDNA from the Max-Planck Institute laboratory (Dr. W. Stuhmer and Dr. F. Soto)
- Method Notes: Two-electrode voltage clamp, ATP-induced ion current in Xenopus oocytes expressing human P2X3
- Assay type: cell-based
- Measurement Conditions: Table 1; 100 nM compound; ion current induced by 2 μM ATP; mean ± SEM, n = 4; read-out: % inhibition hP2X3
Recorded Metric: inhibition at 0.1 µM (%)

I: Cc1nc(N=Nc2ccc(C(=O)O)cc2)c(CCC(=O)O)c(C(=O)O)c1O
II: Cc1nc(N=Nc2cc(S(=O)(=O)O)ccc2S(=O)(=O)O)c(CCC(=O)O)c(C(=O)O)c1O
Problem: Hi, I'm comparing two records. Which one has the lower inhibition at 0.1 µM, I or II ? # respond with the chosen item's label
Solution: I
(I: 25.7%, II: 45.7%)

###

- Tested System: human P2X3 receptor (Homo sapiens)
- Construct: expressed in transfected cells; host or cells: Xenopus oocytes (cRNA injected); cDNA from the Max-Planck Institute laboratory (Dr. W. Stuhmer and Dr. F. Soto)
- Sequence (P56373 1-397): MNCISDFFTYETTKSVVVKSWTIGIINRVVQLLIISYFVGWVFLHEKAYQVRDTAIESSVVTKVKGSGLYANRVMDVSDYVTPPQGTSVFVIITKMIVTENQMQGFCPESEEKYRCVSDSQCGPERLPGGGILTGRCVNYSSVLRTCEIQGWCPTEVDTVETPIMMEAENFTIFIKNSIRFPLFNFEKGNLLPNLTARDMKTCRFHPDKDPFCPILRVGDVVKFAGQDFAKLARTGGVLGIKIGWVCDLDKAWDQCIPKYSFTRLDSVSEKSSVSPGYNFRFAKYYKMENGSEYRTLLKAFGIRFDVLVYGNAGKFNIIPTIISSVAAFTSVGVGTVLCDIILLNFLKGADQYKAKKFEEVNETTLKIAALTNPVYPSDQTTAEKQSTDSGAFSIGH
- Method Notes: Two-electrode voltage clamp, ATP-induced ion current in Xenopus oocytes expressing human P2X3
- Format: cell-based
- Measurement Conditions: concentration-inhibitory curve, 2 μM ATP (FIG. 1C, FIG. 2B)
Recorded Metric: Hill coefficient

Take a look at these entries with their results.
{"columns": ["Compound", "Hill coefficient"],
 "data": [
  ["Cc1nc(CCc2ccccc2)c(C(=O)O)c(C(=O)O)c1O", "−0.63"],
  ["Cc1nc(N=Nc2ccc(C(=O)O)cc2)c(CCC(=O)O)c(C=O)c1O", "−1.08"],
  ["O=C(O)c1cc(C(=O)O)c(C(=O)N(Cc2cccc(Oc3ccccc3)c2)[C@H]2CCCc3ccccc32)cc1C(=O)O [A-317491, reference compound]", "−0.68"],
  ["Cc1nc(CCc2ccc(C(=O)O)cc2)c(C(=O)O)c(C(=O)O)c1O", "−0.58"]
]}

P: Cc1nc(C=Cc2ccccc2)c(C(=O)O)c(C(=O)O)c1O
Q: Cc1nc(N=Nc2cc(S(=O)(=O)O)ccc2S(=O)(=O)O)c(CCC(=O)O)c(C=O)c1O
Problem: Between P and Q , whose recorded Hill coefficient is greater? # respond with the chosen item's label
Solution: P
(P: −0.52, Q: −1.18)

###

- Tested System: mouse P2X1 receptor (Mus musculus)
- Construct: EST clones containing full-length cDNAs of mouse P2X1 (clone ID: 4189541) and human P2X7 receptor (clone ID: 5286944); host or cells: Xenopus oocytes (cRNA injected)
- Sequence (P51576 whole entry): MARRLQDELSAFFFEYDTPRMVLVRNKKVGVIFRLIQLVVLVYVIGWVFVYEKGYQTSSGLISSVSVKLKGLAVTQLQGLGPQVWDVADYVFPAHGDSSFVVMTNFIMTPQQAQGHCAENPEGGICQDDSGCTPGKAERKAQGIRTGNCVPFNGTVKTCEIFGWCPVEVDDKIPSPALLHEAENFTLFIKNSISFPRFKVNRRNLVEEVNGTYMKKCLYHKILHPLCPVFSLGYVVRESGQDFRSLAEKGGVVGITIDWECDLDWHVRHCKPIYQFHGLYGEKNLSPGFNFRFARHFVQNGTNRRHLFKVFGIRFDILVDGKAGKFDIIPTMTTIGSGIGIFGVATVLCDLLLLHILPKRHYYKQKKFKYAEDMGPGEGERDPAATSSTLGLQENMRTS
- Method Notes: Two-electrode voltage clamp, ATP-induced ion current in Xenopus oocytes expressing mouse P2X1
- Format: cell-based
- Measurement Conditions: Table 2; 10 μM compound; ion current induced by 2 μM ATP; mean ± SEM, n = 4
Recorded Metric: % inhibition mP2X1 (%)

{"columns": ["Smiles Repr", "Tested System", "Endpoint Unit", "Measured"],
 "data": [
  ["Cc1nc(CCc2ccccc2)c(C(=O)O)c(C(=O)O)c1O", "mouse P2X1 receptor (Mus musculus)", "%", 73.4],
  ["COc1ccc(CCc2nc(C)c(O)c(C(=O)O)c2C(=O)O)cc1", "mouse P2X1 receptor (Mus musculus)", "%", 77.0],
  ["CC(=O)c1c(O)c(C)nc(Cc2ccccc2)c1C(=O)O", "mouse P2X1 receptor (Mus musculus)", "%", 44.2]
]}

I: Cc1nc(CC(c2ccccc2)c2ccccc2)c(C(=O)O)c(C(=O)O)c1O
II: Cc1nc(CCc2ccc(C(=O)O)cc2)c(C(=O)O)c(C(=O)O)c1O
Problem: Hi, I'm comparing two records. Which one has the lower % inhibition mP2X1, I or II ? # respond with the chosen item's label
Solution: I
